Sourced from PubChem BioAssay

target: Pro-neuregulin-1, membrane-bound isoform (Homo sapiens) (UniProt Q02297); assay: NRG1 binders on small-molecule microarrays, primary screen, psychiatric disease protein project, biochemical, small-molecule microarray, fluorescence 635/667 (AID 1075); conditions: NRG1 binding, 635 nm fluorescence, higher = more signal;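 further: score combines 667 nm spot fluorescence with signal to noise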
Sequence (Q02297 whole entry, looked up, canonical isoform): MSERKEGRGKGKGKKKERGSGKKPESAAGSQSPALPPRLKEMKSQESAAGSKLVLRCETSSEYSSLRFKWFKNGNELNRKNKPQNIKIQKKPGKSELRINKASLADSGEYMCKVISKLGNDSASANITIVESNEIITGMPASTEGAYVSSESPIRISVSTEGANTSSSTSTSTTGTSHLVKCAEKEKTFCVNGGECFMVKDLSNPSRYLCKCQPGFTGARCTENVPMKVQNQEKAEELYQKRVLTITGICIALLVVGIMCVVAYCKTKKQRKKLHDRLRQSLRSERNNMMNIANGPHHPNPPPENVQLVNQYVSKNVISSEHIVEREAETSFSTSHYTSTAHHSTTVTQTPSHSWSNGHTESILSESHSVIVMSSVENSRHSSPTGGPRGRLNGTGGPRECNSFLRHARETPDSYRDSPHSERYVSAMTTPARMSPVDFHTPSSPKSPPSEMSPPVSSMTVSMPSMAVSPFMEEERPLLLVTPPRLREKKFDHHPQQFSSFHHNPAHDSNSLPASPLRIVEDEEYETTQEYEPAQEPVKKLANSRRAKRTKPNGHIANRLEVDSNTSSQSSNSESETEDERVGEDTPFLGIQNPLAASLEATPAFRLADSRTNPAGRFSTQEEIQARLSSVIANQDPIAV
Give composite z-score for every item shown.
Write the value as a bare number.

Data request: Kindly indicate its recorded composite z-score. Item: O=C1[C@H]2[C@H]3[C@H](O)[C@H](O)CC(=NO[C@@H]4O[C@H](CO)[C@@H](O)[C@H](O)[C@H]4O)[C@@H]3CC[C@H]2C(=O)N1C[C@@H]1CCCO1
Data returned: -0.0236

Data request: Check the records and state composite z-score for COC(=O)[C@H](C)NC(=O)CCC1CC(OC(=O)NCc2ccc3c(c2)OCO3)CC2(CCCC(COC(=O)NCc3ccccc3)O2)O1 (some centres not stated)
Data returned: 0.52

Data request: Give the measured composite z-score for Cc1cc2c(nc1C)CCCCN2CC(O)CN1CCCc2nc(-c3ccc(Br)cc3)ccc21 (configuration not stated)
Data returned: 0.548

Data request: Specify reported composite z-score for the compound shown: CC(CCN1CCc2nc(-c3ccccc3)c(-c3ccccc3)cc2C1)=NOC(C)CN1CCCc2nc(C)c(C)cc21 (configuration not stated)
Data returned: 0.72

Data request: Answer with reported composite z-score of C[C@@H]1C=CCC(=O)OC[C@H](C)C(=O)N[C@@H](Cc2ccccc2)C(=O)OC1
Data returned: -0.302

Data request: Return value of composite z-score for input CCOC(=O)CCN1C(=O)[C@H]2[C@H]3[C@H](O)[C@H](O)CC(=NO[C@@H]4O[C@H](CO)[C@@H](O)[C@H](O)[C@H]4O)[C@@H]3CC[C@H]2C1=O , no commentary.
Data returned: 0.254

Data request: Specify measured composite z-score for CCCCOC(OCCCC)C(O)CSc1ccc2ccccc2c1 (configuration not stated) .
Data returned: -0.213
